# reported amyloid nucleation score; entries follow
TEST_SUMMARY: amyloid nucleation score (Sup35N fusion, yeast selection) (log enrichment); library NNK3; higher = more nucleation; inactive = no reads after selection;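 further: zero at mode of non-aggregating sequences after 7 days selection at 30°C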
# respond with the number and nothing more

POLYMER_SEQUENCE | amyloid nucleation score
KIICRAWYMSVGERRA | -0.449

Now for a further sequence.
Q: Query: amyloid nucleation score; subject: LSCDGNRGTVFVIRIFSGDV
A: 2.62

* * *

# reported amyloid nucleation score; entries follow
TEST_SUMMARY: amyloid nucleation score (Sup35N fusion, yeast selection) (log enrichment); library NNK2; higher = more nucleation; inactive = no reads after selection
# respond with the number and nothing more

SUBSTANCE | amyloid nucleation score
PSSKVL | 0.024
MIFLYCYIRIEKKVS | -0.927
IIEIRAASGPVGFSDINMF | -0.459

Q: Query: amyloid nucleation score; subject: CANFRSGYGA
A: -0.241

Q: Query: amyloid nucleation score; subject: RSIDRYRHHNLCRNQYVM
A: -0.693

Q: Query: amyloid nucleation score; subject: SGSGNLFA
A: -0.545

Q: Query: amyloid nucleation score; subject: IFIRMH
A: 2.48

* * *

TEST_SUMMARY: amyloid nucleation score (Sup35N fusion, yeast selection) (log enrichment); library NNK2; higher = more nucleation; inactive = no reads after selection
MEASUREMENT_LABEL: amyloid nucleation score

In the examples that follow, each entry is paired with its recorded amyloid nucleation score.
SUBSTANCE | RESULT_VALUE
IQPQSSVVERGQMNMVGPTP | 1.49
RYGRRSYLPAIIRCARCLDE | 6.56
LGIDAYCPWCVYECFSSRGE | 9.59
SVFCRKLTLVAGGDARRDCK | 0.497

Q: Query: amyloid nucleation score; subject: TGRLPLFLQGLDEYPASNPE
A: -0.288

Q: Query: amyloid nucleation score; subject: MLRPAAHDGVKASYVKFKI
A: 0.489

Q: Query: amyloid nucleation score; subject: NFYAYIIVDCSWMCSTCYSL
A: 5.52

Q: Query: amyloid nucleation score; subject: DCFPLLLNRFRPEHYVRWHR
A: 0.887

Q: Query: amyloid nucleation score; subject: SSTIGVGRSLFLLMFYRDLI
A: -1.44

* * *

# reported amyloid nucleation score; entries follow
TEST_SUMMARY: amyloid nucleation score (Sup35N fusion, yeast selection) (log enrichment); library NNK2; higher = more nucleation; inactive = no reads after selection
# respond with the number and nothing more

SUBSTANCE | amyloid nucleation score
PRRCSISIEFRDE | -0.718
SREVFDVLGKFFCSPQDRVV | 0.294
SWHVVQAVIDVVDREV | 0.967

Q: Query: amyloid nucleation score; subject: NCPCGHVVRVNNNWRCFSVT
A: 6.93

Q: Query: amyloid nucleation score; subject: IGIDRL
A: -0.069

Q: Query: amyloid nucleation score; subject: NKRLLLMFNRWDCVVSWDKC
A: -1.31

Q: Query: amyloid nucleation score; subject: FARLGLSSQHRRLIVC
A: -1.31

Q: Query: amyloid nucleation score; subject: YRRQPS
A: 0.174

Q: Query: amyloid nucleation score; subject: SFAHEDWHTLFLL
A: -1.32

Q: Query: amyloid nucleation score; subject: NVAHGW
A: -0.322

Q: Query: amyloid nucleation score; subject: HYCSVRMWLTTKEADPRTSL
A: 0.739

Q: Query: amyloid nucleation score; subject: IRAGAWLEICRSAVVSGPSF
A: -0.073

These data points were gathered from the supplement of paper PMC12042874.
